Hi there, I'd appreciate the recorded viability, T/C for every entry that follows.
System: 616215-338-R-J1-PDC complex spheroids, viability % test/control
Experiment: Anticancer human tumor 616215-338-R-J1-PDC patient-derived colon adenocarcinoma cell line growth inhibition [CLK]
Settings: second compound 0.316 µM; first compound 3.16 µM; stronger effect = lower value
The reply should contain only the number, in %.

# input For C=CC(=O)N1CCN(c2nc(=O)n(-c3c(C)ccnc3C(C)C)c3nc(-c4c(O)cccc4F)c(F)cc23)C(C)C1 (stereo not given) + CNC(=O)c1ccc(Nc2nc(OC3CCCC3)c3c(-c4ccc5nc(C)oc5c4)c[nH]c3n2)c(OC)c1 , what is its reported viability, T/C?
# output 53.1

# input Now the compound CC1(C)CCC(CN2CCN(c3ccc(C(=O)NS(=O)(=O)c4ccc(NCC5CCOCC5)c([N+](=O)[O-])c4)c(Oc4cnc5[nH]ccc5c4)c3)CC2)=C(c2ccc(Cl)cc2)C1 + CN1CCN(c2cc(C(=O)Nc3cc4cc(-c5cnn(C)c5)ccc4cn3)ccn2)CC1
# output 12.7

# input Now the compound CC(Nc1ccc2c(c1)OCCn1cc(N3C(=O)OCC3C(F)F)nc1-2)C(N)=O (stereo not given) + CNC(=O)c1ccc(Nc2nc(OC3CCCC3)c3c(-c4ccc5nc(C)oc5c4)c[nH]c3n2)c(OC)c1
# output 26.1

# input Now the compound COC1C=CCC(C)C(C)S(=O)(=O)NC(=O)c2ccc3c(c2)N(CC2CCC21)CC1(CCCc2cc(Cl)ccc21)CO3 (stereo not given) + CN1CCN(c2cc(C(=O)Nc3cc4cc(-c5cnn(C)c5)ccc4cn3)ccn2)CC1
# output 20

# input Now the compound CC1COCCN1c1cc(C2(S(C)(=N)=O)CC2)nc(-c2ccnc3[nH]ccc23)n1 (stereo not given) + CN1CCN(c2cc(C(=O)Nc3cc4cc(-c5cnn(C)c5)ccc4cn3)ccn2)CC1
# output 23.9

# input Now the compound CC(=O)O[C@H]1C(=O)[C@@]2(C)[C@H]([C@H](OC(=O)c3ccccc3)[C@]3(O)C[C@H](OC(=O)[C@H](O)[C@@H](NC(=O)c4ccccc4)c4ccccc4)C(C)=C1C3(C)C)[C@]1(OC(C)=O)CO[C@@H]1C[C@@H]2O + CN1CCN(c2cc(C(=O)Nc3cc4cc(-c5cnn(C)c5)ccc4cn3)ccn2)CC1
# output 19.9

# input Now the compound Nc1ccccc1NC(=O)c1ccc(CNC(=O)OCc2cccnc2)cc1 + CNC(=O)c1ccc(Nc2nc(OC3CCCC3)c3c(-c4ccc5nc(C)oc5c4)c[nH]c3n2)c(OC)c1
# output 29.3

# input Now the compound O=C(c1cc(Cc2n[nH]c(=O)c3ccccc23)ccc1F)N1CCN(C(=O)C2CC2)CC1 + CN1CCN(c2cc(C(=O)Nc3cc4cc(-c5cnn(C)c5)ccc4cn3)ccn2)CC1
# output 30.6

# input Now the compound CCCS(=O)(=O)Nc1ccc(F)c(C(=O)c2c[nH]c3ncc(-c4ccc(Cl)cc4)cc23)c1F + CNC(=O)c1ccc(Nc2nc(OC3CCCC3)c3c(-c4ccc5nc(C)oc5c4)c[nH]c3n2)c(OC)c1
# output 27

# input Now the compound O=c1[nH]cc(F)c(=O)[nH]1 + CNC(=O)c1ccc(Nc2nc(OC3CCCC3)c3c(-c4ccc5nc(C)oc5c4)c[nH]c3n2)c(OC)c1
# output 36.6

###

Tested on: 616215-338-R-J1-PDC complex spheroids, viability % test/control
Experiment: Anticancer human tumor 616215-338-R-J1-PDC cell line growth inhibition [CLK];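 further: spheroids exposed to agents for 7 days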
Conditions: curve of compound
parameterMeasured: IC50

# input For CC(Nc1ccc2c(c1)OCCn1cc(N3C(=O)OCC3C(F)F)nc1-2)C(N)=O (configuration not stated) , what is its reported IC50?
# output > 10 µM

# input Now the compound `CCN1CCN(Cc2ccc(Nc3ncc(F)c(-c4cc(F)c5nc(C)n(C(C)C)c5c4)n3)nc2)CC1`
# output > 1 µM

# input Now the compound `COc1ccc([C@@H](O)c2cc(-c3ncnc4cc(N5CCOCC5)ccc34)c(F)cc2Cl)nn1`
# output > 10 µM

# input Now the compound `CC(=O)O[C@H]1C(=O)[C@@]2(C)[C@H]([C@H](OC(=O)c3ccccc3)[C@]3(O)C[C@H](OC(=O)[C@H](O)[C@@H](NC(=O)c4ccccc4)c4ccccc4)C(C)=C1C3(C)C)[C@]1(OC(C)=O)CO[C@@H]1C[C@@H]2O`
# output < 0.0316 µM

# input Now the compound CC1COCCN1c1cc(C2(S(C)(=N)=O)CC2)nc(-c2ccnc3[nH]ccc23)n1 (configuration not stated)
# output > 10 µM

# input Now the compound `C=CC(=O)Nc1cc(Nc2nccc(-c3cn(C)c4ccccc34)n2)c(OC)cc1N(C)CCN(C)C`
# output > 0.3 µM

# input Now the compound C=CC(=O)N1CCN(c2nc(=O)n(-c3c(C)ccnc3C(C)C)c3nc(-c4c(O)cccc4F)c(F)cc23)C(C)C1 (configuration not stated)
# output > 10 µM

# input Now the compound C#Cc1c(F)ccc2cc(O)cc(-c3ncc4c(N5CC6CCC(C5)N6)nc(OCC56CCCN5CC(F)C6)nc4c3F)c12 (configuration not stated)
# output > 10 µM

# input Now the compound CC(CO)NC(=O)c1cc(-c2ccc(Cl)cc2)nn(-c2cnn(C)c2)c1=O (configuration not stated)
# output > 10 µM

# input Now the compound Nc1ccn(C2OC(CO)C(O)C2(F)F)c(=O)n1 (configuration not stated)
# output < 0.0316 µM

# input Now the compound `O=C(c1cc(Cc2n[nH]c(=O)c3ccccc23)ccc1F)N1CCN(C(=O)C2CC2)CC1`
# output > 10 µM

# input Now the compound `Cn1ncnc1[C@H]1c2n[nH]c(=O)c3cc(F)cc(c23)N[C@@H]1c1ccc(F)cc1`
# output > 0.1 µM

###

Hi there, I'd appreciate the recorded viability, T/C for every entry that follows.
Tested on: 616215-338-R-J1-PDC complex spheroids, viability % test/control
Assay: Anticancer human tumor 616215-338-R-J1-PDC cell line growth inhibition [CLK];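 further: spheroids exposed to agents for 7 days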;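 on viability, T/C: 100% = DMSO vehicle wells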
Conditions: second compound 1 µM; first compound 0.0316 µM; stronger effect = lower value

# input For C=C(F)C(=O)N1CCN(c2nc(OCC3CCCN3C)nc3c2CCN(c2cccc4cccc(Cl)c24)C3)CC1CC#N (stereo not drawn) + CNC(=O)c1ccc(Nc2nc(OC3CCCC3)c3c(-c4ccc5nc(C)oc5c4)c[nH]c3n2)c(OC)c1 , what is its reported viability, T/C?
# output 49.8%

# input Now the compound COc1cccc2c1C(=O)c1c(O)c3c(c(O)c1C2=O)CC(O)(C(=O)CO)CC3OC1CC(N)C(O)C(C)O1 (stereo not drawn) + CN1CCN(c2cc(C(=O)Nc3cc4cc(-c5cnn(C)c5)ccc4cn3)ccn2)CC1
# output 0.14%

# input Now the compound CC1COCCN1c1cc(C2(S(C)(=N)=O)CC2)nc(-c2ccnc3[nH]ccc23)n1 (stereo not drawn) + CNC(=O)c1ccc(Nc2nc(OC3CCCC3)c3c(-c4ccc5nc(C)oc5c4)c[nH]c3n2)c(OC)c1
# output 54.5%

###

Tested on: 616215-338-R-J1-PDC complex spheroids, viability % test/control
Experiment: Anticancer human tumor 616215-338-R-J1-PDC cell line growth inhibition [CLK];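 further: spheroids exposed to agents for 7 days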;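 on viability, T/C: 100% = DMSO vehicle wells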
Conditions: second compound 0.316 µM; first compound 0.1 µM; stronger effect = lower value
From the text: A high-throughput screen of multi-cell type tumor spheroids was designed to identify active combinations of […] and targeted small molecules. Complex spheroids include a stromal component modeled by human endothelial cells (HUVEC) and fibroblasts modeled by human mesenchymal stem cells (MSCs). […] Compounds. […] If the clinical Cmax for an agent had not been determined, the highest concentration tested was 10 microM. […]
Threshold-based label: viability, T/C under 40% gives Satisfied, viability, T/C not under 40% gives Not satisfied.

# input Field: below-cutoff. Rule: recorded viability, T/C strictly less than 40%. Subject: CCCS(=O)(=O)Nc1ccc(F)c(C(=O)c2c[nH]c3ncc(-c4ccc(Cl)cc4)cc23)c1F + CN1CCN(c2cc(C(=O)Nc3cc4cc(-c5cnn(C)c5)ccc4cn3)ccn2)CC1
# output Satisfied

# input Now the molecule CCc1c2c(nc3ccc(O)cc13)-c1cc3c(c(=O)n1C2)COC(=O)[C@]3(O)CC + CNC(=O)c1ccc(Nc2nc(OC3CCCC3)c3c(-c4ccc5nc(C)oc5c4)c[nH]c3n2)c(OC)c1
# output Satisfied

# input Now the molecule COc1cccc2c1C(=O)c1c(O)c3c(c(O)c1C2=O)CC(O)(C(=O)CO)CC3OC1CC(N)C(O)C(C)O1 (stereo not given) + CNC(=O)c1ccc(Nc2nc(OC3CCCC3)c3c(-c4ccc5nc(C)oc5c4)c[nH]c3n2)c(OC)c1
# output Not satisfied

# input Now the molecule CC1COCCN1c1cc(C2(S(C)(=N)=O)CC2)nc(-c2ccnc3[nH]ccc23)n1 (stereo not given) + CN1CCN(c2cc(C(=O)Nc3cc4cc(-c5cnn(C)c5)ccc4cn3)ccn2)CC1
# output Satisfied

# input Now the molecule CCCS(=O)(=O)Nc1ccc(F)c(C(=O)c2c[nH]c3ncc(-c4ccc(Cl)cc4)cc23)c1F + CNC(=O)c1ccc(Nc2nc(OC3CCCC3)c3c(-c4ccc5nc(C)oc5c4)c[nH]c3n2)c(OC)c1
# output Satisfied
